Test: NCI Yeast Anticancer Drug Screen. Data for the mgt1 strain (AID 153)
Details: S. cerevisiae mgt1 mutant growth inhibition; at 33.0 µM; hits give high values
The panel holds about 79,000 compounds, 15% with a hit somewhere; the sample as a whole holds those more often.
quantity: growth inhibition (%)
Dear colleague, please return just the value in %, with no unit written.

Below are worked cases with known answers.
CCOC(=O)/C(O)=C(/C=N/C(=S)Nc1c(CC)cccc1CC)C(=O)OCC; 20
Nc1cccc2cc(Cl)cnc12; 10
CN(C)CCn1c2ccccc2c2nc3cc4ccccc4cc3nc21; 69
O=C1c2ccccc2C(=O)C1C(c1ccc(F)cc1)C1C(=O)c2ccccc2C1=O; 5
CN(C)c1ccc(/C=C/c2ccnc3ccc4ccccc4c23)cc1; 69
CC[C@@]1(OC(=O)CN(C)C)C(=O)OCc2c1cc1n(c2=O)Cc2cc3ccccc3nc2-1; 90

Which growth inhibition is listed for Cc1c2ccncc2c(C)c2c1oc1ccccc12 ?
61

Which growth inhibition is listed for CCOc1nc(OCC)nc(-c2cccn2-c2ccccc2)n1 ?
25

Which growth inhibition is listed for O=C1c2ccccc2-c2ccc(NC(=O)C3CCCCC3C(=O)O)cc21 (centres undefined) ?
13

Which growth inhibition is listed for COc1ccc2cc(CN3CCC(C4CCN(Cc5ccc6cc(OC)ccc6c5)CC4)CC3)ccc2c1 ?
4

Which growth inhibition is listed for Cc1cccc[c]1[Sn]([Cl])([S]/C(C#N)=N/N=C/c1ccc(N(C)C)cc1)[c]1ccccc1C ?
37

Which growth inhibition is listed for O=C1C=CC(=Nc2ccc3c(c2)Cc2cc(Cl)ccc2-3)O1 ?
99

Which growth inhibition is listed for CCCCCCC(CCl)c1sc(-c2csc(CCNC(=O)OC(C)(C)C)n2)nc1C(=O)OC (centres undefined) ?
2

Which growth inhibition is listed for Cc1cccc(N2CCN(C(=O)/C(=C/c3ccccc3)NC(=O)c3ccccc3)CC2)c1 ?
44

###

Assay: NCI Yeast Anticancer Drug Screen. Data for the mgt1 strain (AID 153)
Settings: S. cerevisiae mgt1 mutant growth inhibition; at 100.0 µM
The panel holds about 79,000 compounds, 15% with a hit somewhere; the sample as a whole holds those more often. Activity calls are given as the source filed them. Rule as the data show it: active = growth inhibition above about 70%; inactive = the rest.
Just give me one of these, please: 1 for active, -1 for inactive

O=C1c2ccccc2-c2ccc(NC(=O)C3CCCCC3C(=O)O)cc21 (configuration not stated); 1
S=c1[nH]nc(Cc2ccccc2)c(=S)[nH]1; 1
O=C1C(Br)=CC(Br)(Br)C=C1Br; 1
NNc1nnc(-c2ccccc2)nc1Cc1ccccc1; 1
CC(C)OC(CCC#N)c1ccc(Cl)cc1 (configuration not stated); -1
CN(C)CCC(=O)c1c[nH]c2ccccc12; -1
CC(C)(C)[Si](C)(C)OCC1OC(n2cnc3c(N)ncnc32)C2OC(=S)OC12 (configuration not stated); -1
CCCCCCCCCC/C=C\CC(=O)O; 1
Cc1ccnc(NS(=O)(=O)c2ccc(Nc3c4ccccc4nc4ccccc34)cc2)n1; 1
NCC(O)CSCc1ccc(Cl)cc1 (configuration not stated); -1

For CC(=O)O/N=C/c1c2ccccc2cc2ccccc12 , what call appears in the results of this test?
-1

For CC[N+]1(C)CCC(O)(/C=C/c2ccc(Cl)c(Cl)c2)C(C(=O)/C=C/c2ccc(Cl)c(Cl)c2)C1 (configuration not stated) , what call appears in the results of this test?
1

For Oc1ccc(Br)cc1C=Nc1cccc(C(F)(F)F)c1 , what call appears in the results of this test?
1

For O=C(CCC(=O)c1ccc(O)cc1)Oc1ccc(O)cc1 , what call appears in the results of this test?
-1

For C[n+]1c(-c2ccc(NC(=O)c3ccc(C(=O)Nc4ccc(-c5cn6ccccc6[n+]5C)cc4)cc3)cc2)cn2ccccc21 , what call appears in the results of this test?
1

For CCOC(=O)/C(O)=C(/C=N/C(=S)Nc1c(CC)cccc1CC)C(=O)OCC , what call appears in the results of this test?
-1

For COc1cc(C(C)C(C(=O)O)C(=O)C(=O)O)cc(OC)c1OC (configuration not stated) , what call appears in the results of this test?
-1

For Cc1c2ccncc2c(C)c2c1oc1ccccc12 , what call appears in the results of this test?
1

For O=C(c1c(F)c(F)c(F)c(F)c1F)c1c(F)c(F)c(F)c(F)c1F , what call appears in the results of this test?
1

For CCCC#CCOC(=O)c1cc([N+](=O)[O-])cc([N+](=O)[O-])c1 , what call appears in the results of this test?
1

For CC1(C)CC(=O)C(C(CC(c2ccccc2)c2cc3c(cc2O)OCO3)C2=C(O)CC(C)(C)CC2=O)=C(O)C1 (configuration not stated) , what call appears in the results of this test?
1

For Nc1cccc2cc(Cl)cnc12 , what call appears in the results of this test?
-1
